Ref: PubChem BioAssay (EPA / NIEHS)

# Read-out: Matrix Metallopeptidase 9 (MMP9), MMP9 (gene 4318)
# experiment description: BSK_KF3CT_MMP9: BioMAP Diversity Plus: KF3CT Assay for Matrix Metallopeptidase 9 (MMP9) Biomarker Activity (AID 2283074);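 on AC50: MMP9 protein level quantified by ELISA in the co-culture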
# condition notes: primary human keratinocytes with fibroblasts; actives raise or lower the signal
Active and inactive are the calls of the source. How the source made its calls: active means hit-call score of the fitted dose curve at least 0.9, where 1 is the maximum; inactive means score below 0.9.
measure: AC50

Below, each entry is followed by its recorded AC50 result.
>  <compound>
CCOP(=S)(OCC)SCS(=O)(=O)CC

>  <AC50>
inactive

$$$$
>  <compound>
Cc1ccc([N+](=O)[O-])cc1C

>  <AC50>
inactive

$$$$
>  <compound>
c1cc2c3c(cccc3c1)CC2

>  <AC50>
inactive

$$$$
>  <compound>
CC(C)Nc1ccc(Nc2ccccc2)cc1

>  <AC50>
20 µM (active)

$$$$
>  <compound>
CC(Cl)(Cl)C(=O)O

>  <AC50>
inactive

$$$$
>  <compound>
c1nc[nH]n1

>  <AC50>
inactive

$$$$

For each of the items listed, what is its AC50?
1. OCC(F)(F)OC(F)(F)C(F)(F)OC(F)(F)C(F)(F)OC(F)(F)CO
2. O=C(O)C(F)(F)C(F)(F)C(=O)O
3. O=C(O)C(F)(OC(F)(F)C(F)(F)C(F)(F)F)C(F)(F)F (centres undefined)
4. O=c1ssc(Cl)c1Cl

*A*
1. inactive
2. inactive
3. inactive
4. 5.92 µM (active)

---

# experiment description: ACEA_ER_AUC_viability: ACEA Biosciences xCELLigence Real-Time Cell Analysis on Estrogen Receptor Agonism for Viability (AID 2283782);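 further: continuous compound exposure with impedance area under curve over 80 h; hit means loss of impedance signal meaning reduced cell growth or viability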
Records with an inconclusive call do not appear. Active and inactive are the calls of the source. The calls were made as follows: active = hit-call score of the fitted dose curve at least 0.9, where 1 is the maximum; inconclusive = response in the unintended direction; inactive = score below 0.9.
Your reply should match one of these outcome classes. Y (active), N (inactive)

Previously resolved entries follow.
>  <compound>
CSC(C)(C)C=NO

>  <category>
N

$$$$
>  <compound>
O=C(O)C(F)(F)OC(F)(F)C(F)(F)OC(F)(F)F

>  <category>
N

$$$$
>  <compound>
Cc1cc(C)c(C(=O)P(=O)(c2ccccc2)c2ccccc2)c(C)c1

>  <category>
Y

$$$$
>  <compound>
Cc1c([N+](=O)[O-])cc2c(c1[N+](=O)[O-])C(C)(C)CC2(C)C

>  <category>
Y

$$$$
>  <compound>
COCCOCCO

>  <category>
N

$$$$

*Q* Tell me the assay call for "CNC(=O)Oc1ccc(N(C)C)c(C)c1" please.
*A* Y

*Q* Please indicate how the test categorized "ClC(Cl)=C(c1ccc(Cl)cc1)c1ccccc1Cl" .
*A* N

*Q* Just curious, what result did "OCC(F)(F)OC(F)(F)C(F)(F)OC(F)(F)C(F)(F)OC(F)(F)CO" get here?
*A* Y

---

# Read-out: Pselectin, SELP (gene 6403)
# experiment description: BSK_4H_Pselectin: BioMAP Diversity Plus: 4H Assay for Pselectin Biomarker Activity (AID 2283026)
# condition notes: primary human endothelial cells (HUVEC); actives raise or lower the signal
# Procedure: BSK_4H is a cell-based, multiplexed-readout assay that uses umbilical vein endothelium, a human vascular primary cell, with measurements taken at 24 hours after chemical dosing in a 96-well plate.BSK_4H_Pselectin is an assay component measured in the BSK_4H assay. It measures P-Selectin antibody related to regulation of gene expression using ELISA technology.Data from the assay component BSK_4H_Pselectin was analyzed into 1 assay endpoint. […]
Calls of active or inactive are those of the source. How the source made its calls: active means hit-call score of the fitted dose curve at least 0.9, where 1 is the maximum; inactive means score below 0.9.
Assign a class; possible classes are active, inactive

>  <compound>
N#Cc1c(-c2ccc(Cl)cc2)[nH]c(C(F)(F)F)c1Br

>  <category>
active

$$$$
>  <compound>
c1nc[nH]n1

>  <category>
inactive

$$$$
>  <compound>
CCCCc1ccccc1

>  <category>
inactive

$$$$
>  <compound>
O=C(O)C(F)(OC(F)(F)C(F)(F)C(F)(F)F)C(F)(F)F (stereo not drawn)

>  <category>
inactive

$$$$
>  <compound>
CCCN(CCC)c1c([N+](=O)[O-])cc(C(C)C)cc1[N+](=O)[O-]

>  <category>
inactive

$$$$
>  <compound>
N#Cc1cc([N+](=O)[O-])ccc1N

>  <category>
inactive

$$$$

*Q* What outcome does the record of this test show for "c1ccc(OP(Oc2ccccc2)Oc2ccccc2)cc1" ?
*A* inactive

---

# Read-out: Apoptosis regulator Bcl-2 (Homo sapiens)
# experiment description: LTEA_HepaRG_BCL2: Life Technologies and Expression Analysis (LTEA) Assay for Bcl-2 gene using HepaRG (AID 2283475);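 further: BCL2 transcript by TaqMan qRT-PCR normalised to ACTB GAPDH and POLR2A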
# condition notes: mRNA level, 48 h; actives raise or lower the signal
Calls of active or inactive are those of the source. The calls were made as follows: active = hit-call score of the fitted dose curve at least 0.9, where 1 is the maximum; inactive = score below 0.9.
measure: AC50

Solved entries (count: 5):
>  <molecule>
Cc1cccc(N)c1

>  <AC50>
inactive

$$$$
>  <molecule>
O=C(O)C(Cl)Cl

>  <AC50>
inactive

$$$$
>  <molecule>
c1ccc(OP(Oc2ccccc2)Oc2ccccc2)cc1

>  <AC50>
inactive

$$$$
>  <molecule>
OCC1CO1 (centres undefined)

>  <AC50>
inactive

$$$$
>  <molecule>
CC(C)(C)OOC(C)(C)C

>  <AC50>
inactive

$$$$

Would you be so kind as to report AC50 for each listed record?
1. CCOS(=O)(=O)OCC
2. CCOP(=S)(OCC)SCSCC
3. c1ccc2c(c1)Nc1ccccc1S2

*A*
inactive
inactive
inactive

// field: AC50; key: "[N-]=[N+]=[N-]" ; value = 76.8 µM (active)

---

# experiment description: CCTE_Shafer_MEA_dev_interburst_interval_mean: CCTE's Neural Network Formation Assay for Mean Interburst Interval, Shafer Lab (AID 2284046);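 further: well-mean interburst interval of bursting electrodes as AUC over four recording days; curve fitted for decrease in interburst interval relative to DMSO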
Calls of active or inactive are those of the source. The calls were made as follows: active = hit-call score of the fitted dose curve at least 0.9, where 1 is the maximum; inactive = score below 0.9.
Your reply should match one of these outcome classes. active, inactive

>  <compound>
ClC1=C(Cl)C2(Cl)C3C(Cl)C(Cl)CC3C1(Cl)C2(Cl)Cl (centres undefined)

>  <category>
active

$$$$

*Q* State the result this test recorded for O=P1(N(CCCl)CCCl)NCCCO1 (centres undefined) .
*A* inactive

*Q* Test call, this compound: "OCC(F)(F)OC(F)(F)C(F)(F)OC(F)(F)C(F)(F)OC(F)(F)F"
*A* inactive

*Q* Field: outcome | Entry: CCC1(c2ccccc2)C(=O)N=C(O)NC1=O (centres undefined)
*A* inactive

*Q* # fetch the recorded call for "O=C(O)C=CC(F)(C(F)(F)F)C(F)(F)F" here
*A* inactive

*Q* Which outcome was assigned to "CCOc1ccc(C(C)(C)COCc2cccc(Oc3ccccc3)c2)cc1" in this test?
*A* active

*Q* Hello, I am checking results. What call was entered for CC(O)C(F)(F)C(F)(F)F (centres undefined) ?
*A* inactive

*Q* Hi, do you know how O=C(O)C1C(C(=O)O)C2(Cl)C(Cl)=C(Cl)C1(Cl)C2(Cl)Cl (centres undefined) came out in this test?
*A* inactive

*Q* What call does the record list for O=C(O)C(F)(OC(F)(F)C(F)(F)C(F)(F)F)C(F)(F)F (centres undefined) ?
*A* inactive

*Q* Field: outcome | Entry: "CO/N=C(/C(=O)OC)c1ccccc1COc1ccccc1C"
*A* active

*Q* Per the assay record, what outcome was assigned to "OCC(F)(F)OC(F)(F)C(F)(F)OC(F)(F)C(F)(F)OC(F)(F)CO" ?
*A* inactive

---

# experiment description: ATG_GRE_CIS: Attagene CIS-FACTORIAL HepG2 Assay for human Glucocorticoid Response Elements (GRE) (AID 2282947)
# condition notes: HepG2 GRE cis-reporter, Attagene multiplex mRNA; actives raise or lower the signal
Active and inactive are the calls of the source. How the source made its calls: active means hit-call score of the fitted dose curve at least 0.9, where 1 is the maximum; inactive means score below 0.9.
Answer with one of the outcomes active, inactive

>  <compound>
O=C(O)C(F)(F)OC(F)(F)C(F)(F)OC(F)(F)C(=O)O

>  <category>
inactive

$$$$

*Q* // outcome(item) with item = O=P(OCC(Br)CBr)(OCC(Br)CBr)OCC(Br)CBr (stereo unspecified)
*A* inactive

*Q* Which outcome was assigned to FC(F)(F)C(F)(C(F)(F)F)C(F)(F)C(F)(F)CC1CO1 (stereo unspecified) in this test?
*A* inactive

*Q* What outcome does the record of this test show for "c1cc2c3c(cccc3c1)CC2" ?
*A* inactive

*Q* How did this test come out for "Nc1ccc(Cl)cc1" ?
*A* inactive

*Q* Fill in: this test's call for COC(=O)C(F)(F)C(F)(F)OC(F)(C(F)(F)F)C(F)(F)OC(F)=C(F)F (stereo unspecified) is ___
*A* inactive

---

# Read-out: Plasminogen activator inhibitor-1 (PAI1), SERPINE1 (gene 5054)
# experiment description: BSK_MyoF_PAI1: BioMAP Diversity Plus: MyoF Assay for Plasminogen activator inhibitor-1 (PAI1) Biomarker Activity (AID 2284256)
# condition notes: primary human lung fibroblasts
The source made the active and inactive calls. How the source made its calls: active means hit-call score of the fitted dose curve at least 0.9, where 1 is the maximum; inactive means score below 0.9.
Just give me one of these, please: active, inactive

Illustrative cases are given below, each with its answer.
>  <compound>
CCCCOCCOP(=O)(OCCOCCCC)OCCOCCCC

>  <category>
active

$$$$
>  <compound>
c1ccc2c(c1)sc1ccccc12

>  <category>
inactive

$$$$
>  <compound>
O=c1ssc(Cl)c1Cl

>  <category>
active

$$$$

*Q* Hey, what did the test say about "ClC(Cl)=C(c1ccc(Cl)cc1)c1ccccc1Cl" ?
*A* active

*Q* For O=P(OCC(Br)CBr)(OCC(Br)CBr)OCC(Br)CBr (centres undefined) , what call appears in the results of this test?
*A* inactive

*Q* Please indicate how the test categorized "CC(C)(C)c1ccccc1OP(=O)(Oc1ccccc1)Oc1ccccc1" .
*A* active

*Q* What was the test verdict on CC(O)C(F)(F)C(F)(F)F (centres undefined) ?
*A* inactive

*Q* What outcome does the record of this test show for "N#Cc1cc([N+](=O)[O-])ccc1N" ?
*A* inactive

*Q* # fetch the recorded call for "COP(N)(=S)OC" here
*A* inactive

*Q* Field: outcome | Entry: "Nc1ccc([N+](=O)[O-])cc1Cl"
*A* inactive

*Q* For "N#Cc1c(-c2ccc(Cl)cc2)[nH]c(C(F)(F)F)c1Br" , what call appears in the results of this test?
*A* active

*Q* Hello, I am checking results. What call was entered for "CCOP(=S)(S)OCC" ?
*A* inactive
